# credit: patent US20240132578A1

Overview of recorded IC50 (µg/mL), neutralization of pseudovirus for various binders
target: HIV-1 Env of isolate MGRM-G-019 (subtype G), on pseudovirus (HIV-1); experiment: cell-based or functional assay
reported.metric: IC50 (µg/mL), neutralization of pseudovirus

[
  {
    "binder": "PGT-128 (antibody, V domains shown) VH: QPQLQESGPTLVEASETLSLTCAVSGDSTAACNSFWGWVRQPPGKGLEWVGSLSHCASYWNRGWTYHNPSLKSRLTLALDTPKNLVFLKLNSVTAADTATYYCARFGGEVLRYTDWPKPAWVDLWGRGTLVTVSS VL: QSALTQPPSASGSPGQSITISCTGTSNNFVSWYQQHAGKAPKLVIYDVNKRPSGVPDRFSGSKSGNTASLTVSGLQTDDEAVYYCGSLVGNWDVIFGGGTKLTVL",
    "endpoint.result": "0.01 µg/mL"
  },
  {
    "binder": "PGT-125 (antibody, V domains shown) VH: QSQLQESGPRLVEASETLSLTCNVSGESTGACTYFWGWVRQAPGKGLEWIGSLSHCQSFWGSGWTFHNPSLKSRLTISLDTPKNQVFLKLTSLTAADTATYYCARFDGEVLVYNHWPKPAWVDLWGRGIPVTVSS VL: QSALTQPPSASGSPGQSITISCNGTATNFVSWYQQFPDKAPKLIIFGVDKRPPGVPDRFSGSRSGTTASLTVSRLQTDDEAVYYCGSLVGNWDVIFGGGTTLTVL",
    "endpoint.result": "> 50 µg/mL"
  },
  {
    "binder": "PGT-123 (antibody, V domains shown) VH: QLHLQESGPGLVKPPETLSLTCSVSGASINDAYWSWIRQSPGKRPEWVGYVHHSGDTNYNPSLKRRVTFSLDTAKNEVSLKLVDLTAADSATYFCARALHGKRIYGIVALGELFTYFYMDVWGKGTAVTVSS VL: SSMSVSPGETAKISCGKESIGSRAVQWYQQKPGQPPSLIIYNNQDRPAGVPERFSASPDFRPGTTATLTITNVDAEDEADYYCHIYDARGGTNWVFDRGTTLTVL",
    "endpoint.result": "0.008 µg/mL"
  }
]
